# System: patient sample microbes
# assayName: AST MIC results for antimicrobial panel 1 (384-well panel from Master Plate vs 96-well panel)
# Type: cell-based
# measurementSetup: antimicrobial panel 1, 384 well patient cartridge
Here, each record is paired with measured MICs obtained from panel made from Master Plate data.
testReadout: MICs obtained from panel made from Master Plate

{"compound": "CC(C)(O/N=C(\\C(=O)N[C@@H]1C(=O)N2C(C(=O)[O-])=C(C[n+]3ccccc3)CS[C@H]12)c1csc(N)n1)C(=O)O", "result": "≤ 1 µg/mL"}
{"compound": "NCC[C@H](O)C(=O)N[C@@H]1C[C@H](N)[C@@H](O[C@H]2O[C@H](CN)[C@@H](O)[C@H](O)[C@H]2O)[C@H](O)[C@H]1O[C@H]1O[C@H](CO)[C@@H](O)[C@H](N)[C@H]1O", "result": "4 µg/mL"}
{"compound": "CO/N=C(\\C(=O)N[C@@H]1C(=O)N2C(C(=O)[O-])=C(C[N+]3(C)CCCC3)CS[C@H]12)c1csc(N)n1 [Cefepime]", "result": "≤ 0.25 µg/mL"}
